Test system: SF268
Test: CellTiter-Glo cell proliferation
Format: cell-based
Details: CTG, 72 hours, read-out: Absolute IC50
measured.attribute: pIC50
Give only the number. pIC50 is defined as minus log10 of concentration in molar units.

Complete the entry with pIC50 for N.N.[Cl][Pt][Cl] [Cisplatin, reference compound]
5.54

====

System: SNU-5
Experiment: CellTiter-Glo cell proliferation
Type: cell-based
Conditions: CTG, 72 hours, read-out: Absolute IC50
measured.attribute: IC50 (µM)
Numeric answer only, unit µM assumed.

Recall and state the measured IC50 for N.N.[Cl][Pt][Cl] [Cisplatin, reference compound] .
2.45

====

Test system: SW480
Assay: CellTiter-Glo cell proliferation
Assay type: cell-based
Conditions: Homo sapiens, CTG, 72 hours, read-out: Absolute IC50
measured.attribute: IC50
Put your answer as a value accompanied by its unit after it.

Assign IC50 to the following record: `Cc1ccc(C(=O)Nc2cc(N3CCNCC3)ccc2-c2ccc(/C=C/C(=O)NO)cc2C)cc1.Cl`
1740 nM

====

System: HeLa
Assay: CellTiter-Glo cell proliferation
Type: cell-based
Conditions: Homo sapiens, CTG, 72 hours, read-out: Absolute IC50
measured.attribute: IC50 (nM)
Numeric answer only, unit nM assumed.

Check the records and state IC50 for `Cc1ccc(C(=O)Nc2cc(N3CCNCC3)ccc2-c2ccc(/C=C/C(=O)NO)cc2C)cc1.Cl`
1400

====

Test system: H69AR
Experiment: CellTiter-Glo cell proliferation
Format: cell-based
Settings: Homo sapiens, CTG, 72 hours, read-out: Absolute IC50
Method: The effect of the present invention compound ZZY-003 on the cell proliferation of 50 cell lines was evaluated by CellTiter-Glo (CTG) method, and the 50% inhibitory concentration was calculated by detecting the cell viability after treatment with different drug concentrations. […] The cells in logarithmic growth phase were harvested and the cells were counted by cell counter. The cell viability was detected by Trypan blue exclusion method to ensure that the cell line viability was more than 96%. […]
measured.attribute: IC50
Hey, just the number and the unit after it is fine.

Respond only with IC50 recorded for `Cc1ccc(C(=O)Nc2cc(N3CCNCC3)ccc2-c2ccc(/C=C/C(=O)NO)cc2C)cc1.Cl`
4.36 µM

====

Biological target: recombinant human LSD1 protein (Homo sapiens, UniProt O60341)
Experiment: In vitro LSD1 inhibitory activity, LSD1-HRP coupling reaction (Amplex Red)
Conditions: LSD1 enzyme activity in vitro; 30 min preincubation; H3K4Me2 peptide
pIC50: −log10 of the molar value.
Each entry gets Criterion not met if its pIC50 stays under 6, and Criterion met if its pIC50 is 6 or above.

Assess whether reported pIC50 for `Cc1cc(/C=C/C(=O)NO)ccc1-c1ccc(N2CCN(C)CC2)cc1` sits at 6 or higher.
Criterion met

hey, is pIC50 for this one >= 6? `Cc1ccc(C(=O)Nc2cc(N3CCNCC3)ccc2-c2ccc(C(=O)Nc3ccccc3N)cc2C)cc1`
Criterion not met

Is it the case that `CN1CCN(c2ccc(-c3ccc(/C=C/C(=O)NO)cc3)cc2)CC1` has pIC50 reaching or exceeding 6?
Criterion met

====

Test system: MOLM-13
Test: CellTiter-Glo cell proliferation
Assay type: cell-based
Settings: CTG, 72 hours, read-out: Absolute IC50
measured.attribute: IC50 (nM)
State just the number; it will be interpreted in nM.

Find the measured IC50 of N.N.[Cl][Pt][Cl] [Cisplatin, reference compound] and report it.
770

====

Test system: BT474
Experiment: CellTiter-Glo cell proliferation
Assay type: cell-based
Conditions: CTG, 72 hours, read-out: Absolute IC50
measured.attribute: IC50 (µM)
Give the quantity in µM, number only.

Specify IC50 for N.N.[Cl][Pt][Cl] [Cisplatin, reference compound] and stop.
66.1

====

Tested on: MDA-MB-453
Experiment: CellTiter-Glo cell proliferation
Format: cell-based
Conditions: Homo sapiens, CTG, 72 hours, read-out: Absolute IC50
measured.attribute: IC50

Indicate the recorded IC50 value for this compound: `Cc1ccc(C(=O)Nc2cc(N3CCNCC3)ccc2-c2ccc(/C=C/C(=O)NO)cc2C)cc1.Cl`
190 nM

====

System: T84
Assay: CellTiter-Glo cell proliferation
Type: cell-based
Details: CTG, 72 hours, read-out: Absolute IC50
measured.attribute: pIC50
Remember the convention: pIC50 equals -log10 of concentration in molar.

Hello, please tell me recorded pIC50 for this one: N.N.[Cl][Pt][Cl] [Cisplatin, reference compound]
5.30

====

Tested on: EBC-1
Experiment: CellTiter-Glo cell proliferation
Assay type: cell-based
Conditions: Homo sapiens, CTG, 72 hours, read-out: Absolute IC50
measured.attribute: IC50 (µM)
Report as a plain number; the unit µM is understood.

Answer with the recorded IC50 for the compound listed here: `Cc1ccc(C(=O)Nc2cc(N3CCNCC3)ccc2-c2ccc(/C=C/C(=O)NO)cc2C)cc1.Cl`
1.15

====

Tested on: SW480
Experiment: CellTiter-Glo cell proliferation
Type: cell-based
Settings: CTG, 72 hours, read-out: Absolute IC50
measured.attribute: IC50 (nM)
// note: answer is a bare numeric in nM

Report IC50, nothing else, for this molecule: N.N.[Cl][Pt][Cl] [Cisplatin, reference compound]
2690

====

System: EBC-1
Assay: CellTiter-Glo cell proliferation
Type: cell-based
Conditions: CTG, 72 hours, read-out: Absolute IC50
measured.attribute: pIC50
// field semantics: pIC50 = negative decimal log of concentration (mol/L)

Give the value of pIC50 reported for the following: N.N.[Cl][Pt][Cl] [Cisplatin, reference compound]
4.75

====

Target: UniProtKB Q13547
Sequence (Q13547 whole entry): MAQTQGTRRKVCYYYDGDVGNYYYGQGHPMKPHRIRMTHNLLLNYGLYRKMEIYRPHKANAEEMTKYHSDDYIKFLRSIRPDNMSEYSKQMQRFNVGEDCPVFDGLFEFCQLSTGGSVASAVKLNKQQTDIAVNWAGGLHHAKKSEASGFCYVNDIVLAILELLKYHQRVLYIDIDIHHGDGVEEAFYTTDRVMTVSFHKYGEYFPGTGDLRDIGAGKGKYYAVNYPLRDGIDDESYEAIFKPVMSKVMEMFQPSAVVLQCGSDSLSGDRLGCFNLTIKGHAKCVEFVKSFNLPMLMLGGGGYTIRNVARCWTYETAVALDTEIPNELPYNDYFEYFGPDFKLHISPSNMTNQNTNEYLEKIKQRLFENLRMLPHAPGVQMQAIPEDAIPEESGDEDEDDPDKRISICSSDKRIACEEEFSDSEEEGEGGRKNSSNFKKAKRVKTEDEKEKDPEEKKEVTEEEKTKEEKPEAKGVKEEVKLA
pIC50: −log10 of the molar value.
Cut-off 6 on pIC50, inclusive. At or above means class 1; below means class 0.

Given `Cc1cc(/C=C/C(=O)NO)ccc1-c1ccc(N2CCCCC2)cc1` , state whether its pIC50 is at least 6.
class 0

# check: pIC50 of `O=C(/C=C/c1ccc(-c2ccc(N3CCCCC3)cc2)cc1)NO` is greater than or equal to 6
class 0

Has `O=C(/C=C/c1ccc(-c2ccc(N3CCOCC3)cc2)cc1)NO` a recorded pIC50 greater than or equal to 6?
class 0

Does the reported pIC50 for `Cc1ccc(C(=O)Nc2cc(N3CCNCC3)ccc2-c2ccc(C(=O)Nc3ccccc3N)cc2C)cc1` fall at or above the 6 mark?
class 0

Decide: is the reported value of pIC50 for `Cc1cc(/C=C/C(=O)NO)ccc1-c1ccc(N2CCNCC2)nc1` equal to or greater than 6?
class 1

Tell me whether pIC50 is at least 6 here: `Cc1cc(/C=C/C(=O)NO)ccc1-c1ccc(N2CCN(C)CC2)cc1`
class 1

pIC50 >= 6 for N[C@@H]1C[C@H]1c1ccccc1 (racemic) [TCP, tranylcypromine, reference compound] ?
class 0

Hello, I need to know if `Cc1cc(/C=C/C(=O)NO)ccc1-c1ccc(-n2ccnc2)cc1` has measured pIC50 not below 6. Thanks!
class 0

====

Tested on: DLD-1
Experiment: CellTiter-Glo cell proliferation
Format: cell-based
Details: Homo sapiens, CTG, 72 hours, read-out: Absolute IC50
Method: The effect of the present invention compound ZZY-003 on the cell proliferation of 50 cell lines was evaluated by CellTiter-Glo (CTG) method, and the 50% inhibitory concentration was calculated by detecting the cell viability after treatment with different drug concentrations. […] The cells in logarithmic growth phase were harvested and the cells were counted by cell counter. The cell viability was detected by Trypan blue exclusion method to ensure that the cell line viability was more than 96%. […]
measured.attribute: IC50 (µM)
Field format: number, assumed µM, no unit text.

Report measured IC50; entry is Cc1ccc(C(=O)Nc2cc(N3CCNCC3)ccc2-c2ccc(/C=C/C(=O)NO)cc2C)cc1.Cl [ZZY-003]
5.13

====

System: MCF 10A
Experiment: CellTiter-Glo cell proliferation
Format: cell-based
Settings: Homo sapiens, CTG, 72 hours, read-out: Absolute IC50
measured.attribute: IC50

Given `Cc1ccc(C(=O)Nc2cc(N3CCNCC3)ccc2-c2ccc(/C=C/C(=O)NO)cc2C)cc1.Cl` , respond with its IC50.
1490 nM

====

Test system: MCF 10A
Experiment: CellTiter-Glo cell proliferation
Assay type: cell-based
Details: CTG, 72 hours, read-out: Absolute IC50
measured.attribute: IC50 (µM)
Reply numerically in µM, unit not repeated.

Return value of IC50 for input N.N.[Cl][Pt][Cl] [Cisplatin, reference compound] , no commentary.
13.2

====

System: human breast cancer cell line BT-474
Experiment: MTT tumor cell proliferation
Type: cell-based
Conditions: 72 h
measured.attribute: IC50

Read off the recorded IC50 for N[C@@H]1C[C@H]1c1ccccc1 (racemic) [TCP, tranylcypromine, reference compound]
> 10 µM

====

System: SF268
Assay: CellTiter-Glo cell proliferation
Type: cell-based
Conditions: Homo sapiens, SF-268, CTG, 72 hours, read-out: Absolute IC50
measured.attribute: IC50 (nM)
Expressed in nM, but write only the number.

Quickly give me recorded IC50 for `Cc1ccc(C(=O)Nc2cc(N3CCNCC3)ccc2-c2ccc(/C=C/C(=O)NO)cc2C)cc1.Cl`
1090
